# run_description: Selectivity ratio of Ki for GABAA alpha-1-beta-3-gamma-2 receptor to Ki for GABAA alpha-5-beta-3-gamma-2 receptor
quantity_measured: Ratio Ki
Give your answer as a number; write no unit.

- Cc1cc(Cc2nc3n(n2)Cc2c(C)ncn2-c2ccc(O)cc2-3)on1: 99
- Cc1cc(Cc2nc3n(n2)Cc2c(C)ncn2-c2ccccc2-3)on1: 57
- Cc1cc(Cc2nc3n(n2)Cc2c(C)ncn2-c2ccc(Cl)cc2-3)on1: 466
- Cc1ccc2c(c1)-c1nc(Cc3cc(C)no3)nn1Cc1c(C)ncn1-2: 620
- Cc1cc(Cc2nc3n(n2)Cc2c(C)ncn2-c2ccc(OC(F)(F)F)cc2-3)on1: 68

# input For COc1ccc2c(c1)-c1nc(Cc3cc(C)no3)nn1Cc1c(C)ncn1-2 , write its Ratio Ki.
# output 307

# input Hello, please tell me recorded Ratio Ki for this one: Cc1ncn2c1Cn1nc(CC3CC3)nc1-c1cc(Br)ccc1-2
# output 2

# input Provide one value: measured Ratio Ki of Cc1cc(Cc2nc3n(n2)Cc2c(C)ncn2-c2ccc(Br)cc2-3)on1
# output 314
